Catalogue of substances with associated Half life (hours) of dissociation from HLA-B*57:01fos, Comp+Abacavir
Biological target: HLA-B*57:01fos (Homo sapiens, UniProt P01889, D201E/D98Y/E176V/E187L/E204Q/E69M/E70A/G107R/I90N/K202T/L105A/L119I/N104I/N87E/Q89R/Q94S/R106L/R155S/R180L/R86G/S101N/S121V/S35A/S48A/T118I/V36M/Y140S/Y91M)
Construct: Fos leucine zipper (C); made in house
Assay: Fluorescence polarisation dissociation rate measurements
Format: binding
Details: as Comp, plus 60 µM abacavir; fluorescence polarisation, 25°C; one-phase decay, plateau 50 mP (unconstrained for RVD); 3-4 replicates
EXPERIMENTAL_ENDPOINT: Half life (hours) of dissociation from HLA-B*57:01fos, Comp+Abacavir (h)

substance=ATFK*GIVRAI data_value=71.63
substance=RVDPAK*GLFYF data_value=0.26
substance=KTFK*DVGNLL data_value=814.20
substance=NTVELRVK*I data_value=233.60

###

Biological target: HLA-B*57:01 (Homo sapiens, UniProt P01889, D201E/D98Y/E176V/E187L/E204Q/E69M/E70A/G107R/I90N/K202T/L105A/L119I/N104I/N87E/Q89R/Q94S/R106L/R155S/R180L/R86G/S101N/S121V/S35A/S48A/T118I/V36M/Y140S/Y91M)
Assay: LC-MRM-MS quantitation of HLA ligands and co-purified abacavir from abacavir treated C1R.B*57:01 cells
Format: cell-based
Conditions: LC-MRM-MS detection; classification of the peptide based on abacavir dependency
EXPERIMENTAL_ENDPOINT: Abacavir dependence

sequence=FSHRIYVAY data_value=Minimal
sequence=IVFPGSTGHI data_value=Dependent
sequence="KVFKLQTSL [non-labelled HLA-B*57:01 ligand]" data_value=Dependent
sequence=KSIFVFTHV data_value=Dependent
sequence="LTTKLTNTNI [non-labelled HLA-B*57:01 ligand]" data_value=Dependent
sequence=MTAGVDGHSW data_value=Minimal
sequence=ASAIIIQRW data_value=Minimal
sequence=LSSPVTKSF data_value=Minimal
sequence="VTKKTYEIW [non-labelled canonical HLA-B*57:01 ligand]" data_value=Minimal
sequence=ASAGNLKPVW data_value=Minimal
sequence="TSLKSRVTI [non-labelled HLA-B*57:01 ligand]" data_value=Facilitated
sequence=HSMSDPGVSY data_value=Minimal
sequence=VSVKDIQAHL data_value=Dependent
sequence=STLHLVLRL data_value=Dependent
sequence=TTWKPLNPNSW data_value=Minimal
sequence="KVVDVVRNL [HLA-B*57:01 ligand derived from MX1]" data_value=Inhibited
sequence=LSQEQLRQW data_value=Minimal
sequence=KTLEGEFSV data_value=Dependent
sequence=ITNADSATRLL data_value=Inhibited
sequence=KTAGYPNVNI data_value=Dependent
sequence=RVAQLEQVYI data_value=Dependent
sequence=VTTDIQVKV data_value=Dependent
sequence="LSKPNPPSL [HLA-B*57:01 ligand]" data_value=Minimal
sequence="HTIQIRQDW [HLA-B*57:01 ligand]" data_value=Facilitated
sequence=TALPLLKQF data_value=Inhibited
sequence=SSAEVKVTI data_value=Dependent
sequence=RVDPDVAQHW data_value=Minimal
sequence=STIRLLTSL data_value=Facilitated
sequence=SAAYLPRMW data_value=Minimal
sequence=KSIARVLTV data_value=Dependent
sequence=KIADFGWSV data_value=Dependent
sequence="RVDPAKGLFYF [non-labelled HLA-B*57:01 ligand]" data_value=Inhibited
sequence=LSSDINVRSW data_value=Minimal
sequence=FVKKLEHSW data_value=Minimal
sequence=GSFGKVFLV data_value=Dependent
sequence=VTHSVRIGF data_value=Inhibited
